system: MOOVA (Monochoria vaginalis); assay: Flooded paddy, preemergence weed control; type: in vivo, Presl.; settings: rate 0.0320 kg/ha, rated 3-4 weeks after treatment, 0-9 rating scale
property: herbicidal rating, MOOVA

# example entries with known answers
- compound: "Cc1cnn(-c2nsc3ccc(-n4c(=O)cc(C(F)(F)F)n(C)c4=O)cc23)c1 [Compound 59]"
  measurement_target: "MOOVA (Monochoria vaginalis)"
  property: "herbicidal rating, MOOVA"
  result: 3.0
- compound: "CN(C(=O)c1nsc2ccc(-n3c(=O)cc(C(F)(F)F)n(C)c3=O)cc12)c1ccc(Cl)cc1 [Compound 18]"
  measurement_target: "MOOVA (Monochoria vaginalis)"
  property: "herbicidal rating, MOOVA"
  result: 9.0
- compound: "Cn1c(C(F)(F)F)cc(=O)n(-c2ccc3snc(C4OCC(C)(C)CO4)c3c2)c1=O [Compound 36]"
  measurement_target: "MOOVA (Monochoria vaginalis)"
  property: "herbicidal rating, MOOVA"
  result: 9.0

Reported herbicidal rating, MOOVA for Cc1sccc1-c1nsc2ccc(-n3c(=O)cc(C(F)(F)F)n(C)c3=O)cc12 [Compound 68] was 9.0

Reported herbicidal rating, MOOVA for COC(=O)C(C)Oc1ccsc1-c1nsc2ccc(-n3c(=O)cc(C(F)(F)F)n(C)c3=O)cc12 (stereo not drawn) [Compound 23] was 9.0

Reported herbicidal rating, MOOVA for COCC1COC(c2nsc3ccc(-n4c(=O)cc(C(F)(F)F)n(C)c4=O)cc23)O1 (stereo not drawn) [Compound 64] was 9.0

====

Tested on: ORYSAT (Rice, Tebonnet)
Test: Flooded paddy, post-transplant rice tolerance
Format: in vivo, Oryza sativa, (L.) Tebonnet
Conditions: flooded paddy, post-transplant rice; rate 0.1250 kg/ha; rated 3-4 weeks after treatment; 0-9 rating scale
Procedure: Results of herbicide evaluation are expressed on a rating scale (0-9). The scale is based upon a visual observation of plant stand, vigor, malformation, size, chlorosis and overall plant appearance as compared with a control. The tolerance of transplanted rice to post-transplanted herbicide application is determined as follows: two ten-day-old rice seedlings (cv. Tebonnet) are transplanted into silt loam soil in 32 oz. plastic containers with a diameter of 10.5 cm and no drainage holes. […]
herbicidal rating, ORYSAT (rice tolerance) listing for selected compounds.
// no unit string in output, number only

# example entries with known answers
- compound: "Cn1c(C(F)(F)F)cc(=O)n(-c2ccc3snc(C4OCCCO4)c3c2)c1=O [Compound 28]"
  numeric_result: 9.0
- compound: "Cn1c(C(F)(F)F)cc(=O)n(-c2ccc3snc(-c4ncccn4)c3c2)c1=O [Compound 12]"
  numeric_result: 7.0
- compound: "C#CCOC(=O)COc1ccsc1-c1nsc2ccc(-n3c(=O)cc(C(F)(F)F)n(C)c3=O)cc12 [Compound 39]"
  numeric_result: 4.0

Now look at this entry.
Noted herbicidal rating, ORYSAT (rice tolerance) for Cn1c(C(F)(F)F)cc(=O)n(-c2ccc3snc(C4OCC(CBr)O4)c3c2)c1=O (stereo not shown) [Compound 79] , tested on ORYSAT (Rice, Tebonnet): 7.0

====

system: IPOHE (Ipomoea hederacea); experiment: Preemergence herbicidal evaluation; assay type: in vivo, (L.) Jacq.; details: Rate 0.0620 kg/ha; rated 4-5 weeks after treatment
Decision: Preemergence herbicidal rating IPOHE beneath 4 gives met; Preemergence herbicidal rating IPOHE meeting or exceeding 4 gives not met.

Below are worked cases with known answers.
- compound: "Cn1c(C(F)(F)F)cc(=O)n(-c2ccc3snc(C4OCC(CCl)O4)c3c2)c1=O (centres unmarked)"
  category: "met"
- compound: "C[C@@H]1C[C@H](C)OC(c2nsc3cc(F)c(-n4c(=O)cc(C(F)(F)F)n(C)c4=O)cc23)O1 (some centres unmarked)"
  category: "not met"

Ask | # strict comparison: is reported Preemergence herbicidal rating IPOHE < 4? input = Cn1c(C(F)(F)F)cc(=O)n(-c2ccc3snc(C4OCCCS4)c3c2)c1=O (centres unmarked)
Reply | not met

Ask | # strict comparison: is reported Preemergence herbicidal rating IPOHE < 4? input = CC1CC(C)(C)OC(c2nsc3ccc(-n4c(=O)cc(C(F)(F)F)n(C)c4=O)cc23)O1 (centres unmarked)
Reply | not met

====

test system: SAGPY (Sagittaria pygmaea); test: Flooded paddy, preemergence weed control; format: in vivo, L.; settings: rate 0.0320 kg/ha, rated 3-4 weeks after treatment, 0-9 rating scale
property: herbicidal rating, SAGPY
// no unit string in output, number only

# example entries with known answers
- compound: "C=C1COC(c2nsc3ccc(-n4c(=O)cc(C(F)(F)F)n(C)c4=O)cc23)OC1 [Compound 58]"
  herbicidal rating, SAGPY: 2.0
- compound: "Cn1c(C(F)(F)F)cc(=O)n(-c2ccc3snc(C4OC(C)(C)C(C)(C)O4)c3c2)c1=O [Compound 56]"
  herbicidal rating, SAGPY: 0.0
- compound: "Cc1ccn(-c2nsc3ccc(-n4c(=O)cc(C(F)(F)F)n(C)c4=O)cc23)n1 [Compound 38]"
  herbicidal rating, SAGPY: 4.5

Reported herbicidal rating, SAGPY for Cn1c(C(F)(F)F)cc(=O)n(-c2ccc3snc(C4OCC(CO)O4)c3c2)c1=O (stereo not shown) [Compound 73] was 0.0

====

Postemergence herbicidal rating, CHEAL listing for selected compounds.
tested on: CHEAL (Chenopodium album); assay: Postemergence herbicidal evaluation; assay type: in vivo, L.; settings: rate 0.0320 kg/ha

# example entries with known answers
- compound: "Cn1ccnc1-c1nsc2ccc(-n3c(=O)cc(C(F)(F)F)n(C)c3=O)cc12 [Compound 5]"
  result: 0.0
- compound: "COc1ccsc1-c1nsc2ccc(-n3c(=O)cc(C(F)(F)F)n(C)c3=O)cc12 [Compound 10]"
  result: 1.0
- compound: "CCc1cc(-c2nsc3ccc(-n4c(=O)cc(C(F)(F)F)n(C)c4=O)cc23)c(CC)s1 [Compound 8]"
  result: 4.0

Now look at this entry.
Reported Postemergence herbicidal rating, CHEAL for Cc1csc(-c2nsc3ccc(-n4c(=O)cc(C(F)(F)F)n(C)c4=O)cc23)n1 [Compound 7] was 4.0

====

Test system: ORYSAT (Rice, Tebonnet)
Assay: Flooded paddy, post-transplant rice tolerance
Format: in vivo, Oryza sativa, (L.) Tebonnet
Settings: flooded paddy, post-transplant rice; rate 0.0080 kg/ha; rated 3-4 weeks after treatment; 0-9 rating scale
Description: Results of herbicide evaluation are expressed on a rating scale (0-9). The scale is based upon a visual observation of plant stand, vigor, malformation, size, chlorosis and overall plant appearance as compared with a control. The tolerance of transplanted rice to post-transplanted herbicide application is determined as follows: two ten-day-old rice seedlings (cv. Tebonnet) are transplanted into silt loam soil in 32 oz. plastic containers with a diameter of 10.5 cm and no drainage holes. […]
property: herbicidal rating, ORYSAT (rice tolerance)

# example entries with known answers
- compound: "Cn1c(C(F)(F)F)cc(=O)n(-c2ccc3snc(-c4cccs4)c3c2)c1=O"
  result: 3.0
- compound: "CC1CC(C)(C)OC(c2nsc3ccc(-n4c(=O)cc(C(F)(F)F)n(C)c4=O)cc23)O1 (stereo not drawn)"
  result: 3.0

Noted herbicidal rating, ORYSAT (rice tolerance) for CC1COC(c2nsc3ccc(-n4c(=O)cc(C(F)(F)F)n(C)c4=O)cc23)O1 (stereo not drawn) , tested on ORYSAT (Rice, Tebonnet): 3.0

====

system: ABUTH (Abutilon theophrasti); test: Preemergence herbicidal evaluation; type: in vivo, Medic.; conditions: Rate 0.0620 kg/ha; rated 4-5 weeks after treatment
Preemergence herbicidal rating ABUTH listing for selected compounds.
// no unit string in output, number only

- compound: "Cc1sccc1-c1nsc2ccc(-n3c(=O)cc(C(F)(F)F)n(C)c3=O)cc12 [Compound 68]"
  Preemergence herbicidal rating ABUTH: 8.5

Reported Preemergence herbicidal rating ABUTH for C=C1COC(c2nsc3ccc(-n4c(=O)cc(C(F)(F)F)n(C)c4=O)cc23)OC1 [Compound 58] was 9.0

Reported Preemergence herbicidal rating ABUTH for Cc1nn(-c2nsc3ccc(-n4c(=O)cc(C(F)(F)F)n(C)c4=O)cc23)c(C)c1C [Compound 49] was 0.0

====

herbicidal rating, ECHORC listing for selected compounds.
tested on: ECHORC (Echinochloa oryzoides); experiment: Flooded paddy, preemergence weed control; assay type: in vivo, Echinochloa oryzoides (Ard.) Fritsch.; settings: rate 0.1250 kg/ha, rated 3-4 weeks after treatment, 0-9 rating scale
// no unit string in output, number only

- compound: "Cc1sccc1-c1nsc2ccc(-n3c(=O)cc(C(F)(F)F)n(C)c3=O)cc12"
  measurement_target: "ECHORC (Echinochloa oryzoides)"
  herbicidal rating, ECHORC: 9.0
- compound: "CSCC1COC(c2nsc3ccc(-n4c(=O)cc(C(F)(F)F)n(C)c4=O)cc23)O1 (stereo not drawn)"
  measurement_target: "ECHORC (Echinochloa oryzoides)"
  herbicidal rating, ECHORC: 8.0
- compound: "CCc1cc(-c2nsc3ccc(-n4c(=O)cc(C(F)(F)F)n(C)c4=O)cc23)c(CC)s1"
  measurement_target: "ECHORC (Echinochloa oryzoides)"
  herbicidal rating, ECHORC: 9.0
- compound: "C[C@@H]1OC(c2nsc3cc(F)c(-n4c(=O)cc(C(F)(F)F)n(C)c4=O)cc23)O[C@@H]1C (stereo partly drawn)"
  measurement_target: "ECHORC (Echinochloa oryzoides)"
  herbicidal rating, ECHORC: 9.0
- compound: "CN(C(=O)c1nsc2ccc(-n3c(=O)cc(C(F)(F)F)n(C)c3=O)cc12)c1ccc(Cl)cc1"
  measurement_target: "ECHORC (Echinochloa oryzoides)"
  herbicidal rating, ECHORC: 9.0
- compound: "Cn1c(C(F)(F)F)cc(=O)n(-c2cc3c(-c4ccccn4)nsc3cc2F)c1=O"
  measurement_target: "ECHORC (Echinochloa oryzoides)"
  herbicidal rating, ECHORC: 9.0
- compound: "C=C1COC(c2nsc3ccc(-n4c(=O)cc(C(F)(F)F)n(C)c4=O)cc23)OC1"
  measurement_target: "ECHORC (Echinochloa oryzoides)"
  herbicidal rating, ECHORC: 9.0
- compound: "Cn1c(C(F)(F)F)cc(=O)n(-c2ccc3snc(-c4nccs4)c3c2)c1=O"
  measurement_target: "ECHORC (Echinochloa oryzoides)"
  herbicidal rating, ECHORC: 9.0

Reported herbicidal rating, ECHORC for Cn1c(C(F)(F)F)cc(=O)n(-c2ccc3snc(-c4ncccn4)c3c2)c1=O was 8.7

Reported herbicidal rating, ECHORC for C#CCOC(=O)COc1ccsc1-c1nsc2ccc(-n3c(=O)cc(C(F)(F)F)n(C)c3=O)cc12 was 0.0

Reported herbicidal rating, ECHORC for Cn1c(C(F)(F)F)cc(=O)n(-c2ccc3snc(C4OCCO4)c3c2)c1=O was 9.0

Reported herbicidal rating, ECHORC for Cc1ccc(-c2nsc3ccc(-n4c(=O)cc(C(F)(F)F)n(C)c4=O)cc23)nc1 was 6.0

Reported herbicidal rating, ECHORC for COC(=O)COc1ccsc1-c1nsc2ccc(-n3c(=O)cc(C(F)(F)F)n(C)c3=O)cc12 was 5.0

Reported herbicidal rating, ECHORC for C=CC1COC(c2nsc3ccc(-n4c(=O)cc(C(F)(F)F)n(C)c4=O)cc23)O1 (stereo not drawn) was 9.0

Reported herbicidal rating, ECHORC for Cn1c(C(F)(F)F)cc(=O)n(-c2ccc3snc(C4OCC(C)(C)CO4)c3c2)c1=O was 9.0

The measurements presented in this section are drawn from patent US6706663B2.
